Where do the numbers come from? From PubChem BioAssay AID248.

# Test system: L1210 leukemia ip in BDF1 mice, survival T/C
# Test Protocol: NCI In Vivo Anticancer Drug Screen. Data for tumor model L1210 Leukemia (intraperitoneal) in B6D2F1 (BDF1) mice
# Assay Conditions: endpoint: mean survival time; dose: 50.0 mg/kg/injection; schedule: Q04DX003 (ip); vehicle: Klucel (hydroxypropylcellulose) (HPC)
Inconclusive results and toxic doses are left out. No stated cut-off is given here; in the data, active means T/C of 150% or more; inactive means T/C below 125%. Peptide text beside a SMILES is read from it. * marks the point of attachment. Cbz = O=C(OCc1ccccc1)*; CH2Cl = ClC*
Labels: 1.0 for active, 0.0 for inactive

>>> label_class("CN/N=C/c1ccc(C(=O)NC(C)C)cc1")
0.0
>>> label_class("Nc1nc(=S)c2[nH]c(N=Nc3ccc(S(N)(=O)=O)cc3)nc2[nH]1")
1.0
>>> label_class("O=C(/C=C/c1ccco1)c1ccc([N+](=O)[O-])cc1")
0.0
>>> label_class("CCOC(=O)NCC(CCN(C)C)(c1cccc2ccccc12)C(C)CC (stereo not given)")
0.0
>>> label_class("CN(C)c1ccc(-c2nc3ccccc3s2)cc1")
0.0
>>> label_class("CC(C)C(CCN1CCCCC1)(CNC1=NCCN1)c1cccc2ccccc12 (stereo not given)")
0.0
>>> label_class("CC(C)CC(NC(=O)CNC(=O)OCc1ccccc1)C(=O)NC(Cc1ccccc1)C(=O)CCl (stereo not drawn) (Cbz-Gly-Leu-Phe-CH2Cl; configuration not given here)")
0.0
>>> label_class("Clc1ccc2nc(CBr)cnc2c1")
0.0
>>> label_class("CN(C(=O)Cl)c1ccccc1")
0.0
>>> label_class("Nc1nc(O)c(N2C(=O)c3ccccc3C2=O)c(=O)[nH]1")
0.0

----------
# System: L1210 leukemia ip in BDF1 mice, survival T/C
# Test Protocol: NCI In Vivo Anticancer Drug Screen. Data for tumor model L1210 Leukemia (intraperitoneal) in B6D2F1 (BDF1) mice
# Assay Conditions: endpoint: mean survival time; dose: 400.0 mg/kg/injection; schedule: Q01DX001 (ip); vehicle: other; higher = longer survival
Toxic doses and inconclusive results are not listed.
Parameter: T/C

>>> result("O=[N+]([O-])c1c(Cl)cccc1-c1c[nH]cc1Cl")
"97 % of control"
>>> result("NC(N)=NCCCC(NC(=O)c1ccccc1)C(=O)O (stereo not drawn)")
"100 % of control"
>>> result("O=c1c(O)c(-c2ccc(Cl)cc2)oc2cc(O)ccc12")
"93 % of control"

----------
compounds and their reported T/C
# Tested on: L1210 leukemia ip in BDF1 mice, survival T/C
# Test Protocol: NCI In Vivo Anticancer Drug Screen. Data for tumor model L1210 Leukemia (intraperitoneal) in B6D2F1 (BDF1) mice
# Assay Conditions: endpoint: mean survival time; dose: 200.0 mg/kg/injection; schedule: Q04DX003 (ip); vehicle: saline with Tween-80; higher = longer survival
Toxic doses and inconclusive results are not listed.
Parameter: T/C

>>> result("O=C(Cc1ccc(F)cc1)c1ccccc1")
"98 % of control"
>>> result("O=C1CC(=O)N(c2ccccc2)O1")
"112 % of control"
>>> result("COc1ccc(C(C(C(C)=O)C(C)=O)C(C(C)=O)C(C)=O)cc1")
"93 % of control"
>>> result("O=C(O)[C@H]1CC2CCC1C2 (some centres undefined)")
"102 % of control"
